Hey, just so you know, these numbers are from paper PMC6823631.

Molecular target: IgE
Experiment: fluorescence quenching titration of antibody tryptophan
Assay type: binding
pKd: −log10 of the molar value.
parameter measured: pKd

O=C(O)Cc1ccc2ccccc2c1 | 5.74
